- assayTarget: SARS-CoV-1 spike protein (SARS-CoV-1, UniProt P59594 14-1195)
- experimentNotes: ELISA
EC50 listing for selected binders.
recordedMetric: EC50 (nM)

binder: 1-B11-A (antibody, V domains shown) VH: QVQLQQSGPELVKPGASVKISCKASGYTFTDHYINWVKQRPGQGLEWIGWIFPGSGSTYYNEQFKGKATLTVDKSSNTAYMLLSSLTSEDSAVYFCARSGGLRLGFAYWGQGTLVTVSA VL: DIQMTQTTSSLSASLGDRVTISCRASQDISNYLNWYQQKPDGTVKLLIYYTSRLHSGVPSRFSGSGSGTDYSLTISNLEQEDISTYFCQQVNTLPYTFGGGTKLEIK
recordedValue: 0.55
--
binder: 6-L8-A (antibody, V domains shown) VH: EVQLQQSVAELVRPGASVKLSCTPSGFNIKNTYMHWMKQRPEQGLEWIGRINPANDDTKYAPKFQDKATITADTSSNTAYLQLSSLTSEDTAIYYCVYDVRWYFDVWGTGTTVTVSS VL: DVVMTQTPLSLPVSLGDQASISCRSSQGLVHSNGNTYLHWYLQKPGQSPKLLIYKVSNRFSGVPDRFSGSGSGTDFTLKISRVEAEDLGVYFCSQSTHVPPTFGAGTKLELK
recordedValue: 43.5
--
binder: 8-N24-A (antibody, V domains shown) VH: QVQLQQPGAELVKPGASVKVSCKASGYTFTSYWMHWVKQRPGQGLEWIGRIHPSDSDTNYYQKFKGKATLSVDKSSSTAYMQLSSLTSEDSAVYYCAIPLYSYDNSGGYYPMDYWGQGTSVTVSS VL: DIVMTQSQKFMSTSVGDRVTITCKASQNVRTAVAWYQQKPGQSPKKLIYLASNRHTGVPDRFTGSGSGTDFTLAISNVQSEDLADYFCLQHWNYPFTFGSGTRLEIK
recordedValue: 59
